# Test system: guinea pig left atria
# Protocol: Positive inotropic effect in guinea pig left atria
# Experimental conditions: left atria paced at 2Hz, 37°, cumulative addition to maximum 10^-4; read-out: EC50 (concentration that increases DT by 50% above the control DT)
pEC50: −log10 of the molar value.
Here, each record is paired with measured pEC50 data.

COC(=O)C1=C(C)NC(C)=C([N+](=O)[O-])C1c1cccc(OCCCCCN2CCN(c3ccccc3OC)CC2)c1 (stereo not shown) [Example 113] : < 4.00
COC(=O)C1=C(C)NC(C)=C([N+](=O)[O-])C1c1ccccc1C(F)(F)F (stereo not shown) [Bay K8644] : 6.82
COC(=O)C1=C(C)NC(C)=C([N+](=O)[O-])C1c1cccc([N+](=O)[O-])c1OCCCN1CCN(c2ccccc2OC)CC1 (stereo not shown) [Example 139] : < 4.00

QUERY: Under guinea pig left atria: pEC50 value of COC(=O)C1=C(C)NC(C)=C([N+](=O)[O-])C1c1cccc(OCCCCN2CCN(c3ccccc3OC)CC2)c1 (stereo not shown) [Example 107] ?
RESULT: < 4.00
